- Assay protocol: Volume of distribution at steady state in Sprague-Dawley rat at 5 mg/kg, iv by LC-MS/MS analysis
- Format: ADME, organism-based
- Run conditions: in vivo
Assay metric: Vdss (L/kg)

- Item smiles: "N#CCCn1cc(-c2nc(Nc3ccc4c(ccn4S(=O)(=O)C(F)(F)F)c3)ncc2F)cn1"
  Measured: 0.985

----------
- Study system: UniProt O60674
- Sequence (O60674 whole entry): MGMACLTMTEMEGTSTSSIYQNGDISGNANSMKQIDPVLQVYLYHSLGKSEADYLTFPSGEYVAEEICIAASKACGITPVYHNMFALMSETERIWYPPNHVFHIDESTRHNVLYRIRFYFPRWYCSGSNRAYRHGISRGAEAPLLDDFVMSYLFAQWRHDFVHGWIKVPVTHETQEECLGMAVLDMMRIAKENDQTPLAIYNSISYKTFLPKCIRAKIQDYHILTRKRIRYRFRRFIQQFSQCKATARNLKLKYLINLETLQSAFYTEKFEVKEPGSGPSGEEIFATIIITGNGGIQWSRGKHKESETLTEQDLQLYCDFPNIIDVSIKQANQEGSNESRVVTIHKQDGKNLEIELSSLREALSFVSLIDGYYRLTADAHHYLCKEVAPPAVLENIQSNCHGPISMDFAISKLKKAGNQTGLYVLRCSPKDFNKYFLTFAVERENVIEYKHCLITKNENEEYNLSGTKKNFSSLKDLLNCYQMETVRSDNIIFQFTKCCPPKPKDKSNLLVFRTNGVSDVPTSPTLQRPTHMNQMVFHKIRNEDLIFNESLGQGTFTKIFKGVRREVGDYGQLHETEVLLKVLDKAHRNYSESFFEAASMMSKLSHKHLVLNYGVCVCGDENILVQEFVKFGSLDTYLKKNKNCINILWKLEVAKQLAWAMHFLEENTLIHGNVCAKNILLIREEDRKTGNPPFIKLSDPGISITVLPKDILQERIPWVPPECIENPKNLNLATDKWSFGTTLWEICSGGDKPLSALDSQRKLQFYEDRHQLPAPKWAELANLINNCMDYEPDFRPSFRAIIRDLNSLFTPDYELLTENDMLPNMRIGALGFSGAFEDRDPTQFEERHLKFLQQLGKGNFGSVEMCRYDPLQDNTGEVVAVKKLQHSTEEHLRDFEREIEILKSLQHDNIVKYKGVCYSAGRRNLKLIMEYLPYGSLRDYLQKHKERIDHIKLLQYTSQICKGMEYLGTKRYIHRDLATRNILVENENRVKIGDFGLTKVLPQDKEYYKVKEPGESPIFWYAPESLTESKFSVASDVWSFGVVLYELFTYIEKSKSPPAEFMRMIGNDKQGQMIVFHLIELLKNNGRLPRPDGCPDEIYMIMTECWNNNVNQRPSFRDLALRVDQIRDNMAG
- Assay protocol: Inhibition of recombinant human JAK2 (808 to end residues) KTFCGTPEYLAPE as substrate measured after 40 mins in presence of [gamm33P]ATP by scintillation counting based radiometry assay
Reported values of IC50 for individual entries

- Item smiles: "Cc1cnc(Nc2ccc(NS(=O)(=O)c3ccc(C(F)(F)F)cc3)c(F)c2)nc1-c1cnn(C(C)C)c1"
  Study system: "UniProt O60674"
  Unit of measurement: "nM"
  Value prefix: "="
  IC50: 25
- Item smiles: "Cc1cnc(Nc2ccc3c(c2)CNC3=O)nc1-c1cnn(CCC#N)c1"
  Study system: "UniProt O60674"
  Unit of measurement: "nM"
  Value prefix: "="
  IC50: 1.1
- Item smiles: "Cn1ccc2cc(Nc3ncc(F)c(-c4cnn(CCC#N)c4)n3)ccc21"
  Study system: "UniProt O60674"
  Unit of measurement: "nM"
  Value prefix: "="
  IC50: 114
- Item smiles: "Cc1cnc(Nc2ccc3c(c2)CCN3S(=O)(=O)c2ccc(C(F)(F)F)cc2)nc1-c1cnn(C)c1"
  Study system: "UniProt O60674"
  Unit of measurement: "nM"
  Value prefix: ">"
  IC50: 1000
- Item smiles: "N#CCCn1cc(-c2nc(Nc3ccc4c(c3)CCN4C(=O)c3ccc(C(F)(F)F)cc3)ncc2F)cn1"
  Study system: "UniProt O60674"
  Unit of measurement: "nM"
  Value prefix: "="
  IC50: 153
